Origin of values: ChEMBL document CHEMBL5036318

Target: Stimulator of interferon genes protein (Homo sapiens, UniProt Q86WV6)
Sequence (Q86WV6 whole entry): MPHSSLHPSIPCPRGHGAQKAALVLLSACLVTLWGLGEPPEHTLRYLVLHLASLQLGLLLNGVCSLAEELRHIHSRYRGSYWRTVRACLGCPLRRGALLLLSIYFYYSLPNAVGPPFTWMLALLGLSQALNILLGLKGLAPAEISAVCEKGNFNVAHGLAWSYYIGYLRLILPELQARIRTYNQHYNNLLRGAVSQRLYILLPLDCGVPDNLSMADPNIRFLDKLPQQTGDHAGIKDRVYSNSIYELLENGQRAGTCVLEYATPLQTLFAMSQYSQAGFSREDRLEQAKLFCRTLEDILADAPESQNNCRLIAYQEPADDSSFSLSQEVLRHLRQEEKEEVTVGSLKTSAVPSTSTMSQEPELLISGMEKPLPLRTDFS
Assay: Binding affinity to wild type STING (unknown origin) assessed as change in melting temperature by differential scanning fluorimetry
Settings: filed as activator
Decision: ΔTm compared against 9 °C; not below it gives Criterion met, below it gives Criterion not met.

Reported ΔTm at or above 9 °C? Nc1ncnc2c1ncn2[C@@H]1O[C@@H]2CO[P@@](=O)(S)O[C@H]3[C@@H](F)[C@H](n4cnc5c(N)ncnc54)O[C@@H]3COP(=O)(O)O[C@H]2[C@H]1F
Criterion met

Follow-up entry: Nc1ncnc2c1ncn2[C@@H]1O[C@@H]2CO[P@](=O)(S)O[C@H]3[C@@H](F)[C@H](n4cnc5c(N)ncnc54)O[C@@H]3CO[P@](=O)(S)O[C@H]2[C@H]1F
Criterion not met

Follow-up entry: Nc1ncnc2c1ncn2[C@@H]1O[C@@H]2CO[P@@](=O)(S)O[C@H]3[C@@H](F)[C@H](n4cnc5c(N)ncnc54)O[C@@H]3CO[P@@](=O)(S)O[C@H]2[C@H]1F
Criterion met

Follow-up entry: Nc1ncnc2c1ncn2[C@@H]1O[C@@H]2CO[P@@](=O)(S)O[C@H]3[C@@H](F)[C@H](n4cnc5c(N)ncnc54)O[C@@H]3CO[P@](=O)(S)O[C@H]2[C@H]1F
Criterion met
